These entries and their values trace back to patent US11939403B2.

Listed compounds paired with reported bioavailability
experiment: Oral bioavailability in mice; format: in vivo; conditions: mouse, not told, po, mice, oral, pretreatment with GF120918 (P-gp inhibitor); read-out: Oral bioavailability, +P-gp inhib.
Square brackets hold non-standard residues; d marks the D form. Peptide text beside a SMILES is read from it. Gly(N-CH2-oxan-4-yl) = O=C(O)CNCC1CCOCC1; NCyclohexylmethylGly = O=C(O)CNCC1CCCCC1; NMeA = CN[C@@H](C)C(=O)O; NEtG = CCNCC(=O)O
Observed Property: bioavailability (%)

[
  {
    "Compound": "CCN1CC(=O)N[C@@H](CC(C)C)C(=O)N(C)[C@@H](C)C(=O)N[C@@H](CC(C)C)C(=O)N2CCC[C@@H]2C(=O)N(CC2CCOCC2)CC(=O)N[C@@H](CC(C)C)C(=O)N(C)[C@@H](C)C(=O)N[C@@H](C)C(=O)N2CCC[C@@H]2C1=O [Compound A03] (cyclo([NEtG]L[NMeA]L[dP][Gly(N-CH2-oxan-4-yl)]L[NMeA]A[dP]))",
    "Unit Descriptor": "%",
    "Assay Result": 4
  },
  {
    "Compound": "CCN1CC(=O)N[C@@H](CC(C)C)C(=O)N(C)[C@@H](C)C(=O)N[C@@H](CC(C)C)C(=O)N2CCC[C@@H]2C(=O)N(CC2CCCCC2)CC(=O)N[C@@H](CC(C)C)C(=O)N(C)[C@@H](C)C(=O)N[C@@H](Cc2ccccc2)C(=O)N2CCC[C@@H]2C1=O [Compound A08] (cyclo(F[dP][NEtG]L[NMeA]L[dP][NCyclohexylmethylGly]L[NMeA]))",
    "Unit Descriptor": "%",
    "Assay Result": 7
  },
  {
    "Compound": "CCN1CC(=O)N[C@@H](CC(C)C)C(=O)N(C)[C@@H](C)C(=O)N[C@@H](CC(C)C)C(=O)N2CCC[C@@H]2C(=O)N(CC2CCOCC2)CC(=O)N[C@@H](CC(C)C)C(=O)N(C)[C@@H](C)C(=O)N[C@@H](Cc2ccccc2)C(=O)N2CCC[C@@H]2C1=O [Compound A09] (cyclo([NEtG]L[NMeA]L[dP][Gly(N-CH2-oxan-4-yl)]L[NMeA]F[dP]))",
    "Unit Descriptor": "%",
    "Assay Result": 22
  }
]
